- system under test: Estrogen receptor (Rattus norvegicus) (UniProt P06211+Q62986)
- particulars: Uterus
- Description: Uterotrophic effect as uterine weight gain in rats at 1 mg/kg/day oral dose for 4 days
parameter: Uterotrophic effect

Previously resolved entries follow.
Prompt: Tell me measured Uterotrophic effect for CCN1CCN(c2ccc(C3=CC4(CCc5cc(O)ccc54)c4ccc(O)cc43)cc2)CC1 (stereo not given) please.
Completion: 208

Prompt: Please supply the value of reported Uterotrophic effect for the item Oc1ccc2c(c1)CCC21C=C(c2ccc(N3CCCCC3)cc2)c2cc(O)ccc21 (stereo not given)
Completion: 139

Prompt: Entry CC(C)CN1CCN(c2ccc(C3=CC4(CCc5cc(O)ccc54)c4ccc(O)cc43)cc2)CC1 (stereo not given) needs its Uterotrophic effect filled in; supply it.
Completion: 185

A: CCC1CCCN(c2ccc(C3=CC4(CCc5cc(O)ccc54)c4ccc(O)cc43)cc2)CC1 (stereo not given)
B: CCCN1CCN(c2ccc(C3=CC4(CCc5cc(O)ccc54)c4ccc(O)cc43)cc2)CC1 (stereo not given)
Prompt: // pick larger Uterotrophic effect from pair: A vs B Return value: the label identifying the chosen record.
Completion: B

----------
- system under test: Estrogen receptor (Homo sapiens) (UniProt Q92731+P03372)
- test description: Binding affinity towards estrogen receptor (ER) using [3H]17-beta-estradiol as radioligand in human breast cancer MCF-7 cells relative to compound 1
- Assay type: cell-based
- particulars: MCF7
parameter: relative binding affinity (RBA)

Prompt: Let me know recorded relative binding affinity (RBA) for CN1CCN(c2ccc(C3=CC4(CCc5cc(O)ccc54)c4ccc(O)cc43)cc2)CC1 (stereo not drawn) , thanks.
Completion: 207

Prompt: Quickly give me recorded relative binding affinity (RBA) for Oc1ccc2c(c1)CCC21C=C(c2ccc(OCCN3CCCCC3)c(F)c2)c2cc(O)ccc21 (stereo not drawn)
Completion: 247

Prompt: Query relative binding affinity (RBA) for CCC1CCCN(c2ccc(C3=CC4(CCc5cc(O)ccc54)c4ccc(O)cc43)cc2)CC1 (stereo not drawn)
Completion: 387

a: CCN(CC)CCOc1ccc(C2=CC3(CCc4cc(O)ccc43)c3ccc(O)cc32)cc1 (stereo not drawn)
b: Cc1cc(OCCN2CCCCC2)ccc1C1=CC2(CCc3cc(O)ccc32)c2ccc(O)cc21 (stereo not drawn)
Prompt: Between the entries labeled a and b , whose measured relative binding affinity (RBA) is lower? Identify your pick by its label.
Completion: b
(b: 70, a: 153)

P: CCCN1CCN(c2ccc(C3=CC4(CCc5cc(O)ccc54)c4ccc(O)cc43)cc2)CC1 (stereo not drawn)
Q: CC1CCN(CCOc2ccc(C3=CC4(CCc5cc(O)ccc54)c4ccc(O)cc43)cc2)CC1 (stereo not drawn)
Prompt: Among P and Q , which shows a numerically higher relative binding affinity (RBA) result? Respond with the label that goes with your answer.
Completion: Q

a: CCN1CCN(c2ccc(C3=CC4(CCc5cc(O)ccc54)c4ccc(O)cc43)cc2)CC1 (stereo not drawn)
b: CN(C)CCOc1ccc(C2=CC3(CCc4cc(O)ccc43)c3ccc(O)cc32)cc1 (stereo not drawn)
Prompt: Of a and b , which one carries the higher reported relative binding affinity (RBA)? Could you answer with the label of the item you picked?
Completion: a
(a: 181, b: 85)

----------
- system under test: Estrogen receptor (Homo sapiens) (UniProt Q92731+P03372)
- test description: Binding affinity towards estrogen receptor (ER) using [3H]17-beta-estradiol as radioligand in human breast cancer MCF-7 cells relative to compound 1
- Type: cell-based
- particulars: MCF7
parameter: relative binding affinity (RBA)

Solved entries (count: 5):
Prompt: Return value of relative binding affinity (RBA) for input Oc1ccc2c(c1)CCC21C=C(c2ccc(OCCN3CCCC3)cc2)c2cc(O)ccc21 (centres undefined) , no commentary.
Completion: 118

Prompt: Respond only with relative binding affinity (RBA) recorded for Oc1ccc2c(c1)CCC21C=C(c2ccc(CCCN3CCCCC3)cc2)c2cc(O)ccc21 (centres undefined)
Completion: 956

Prompt: Indicate the recorded relative binding affinity (RBA) value for this molecule: Cc1cc(C2=CC3(CCc4cc(O)ccc43)c3ccc(O)cc32)cc(C)c1OCCN1CCCCC1 (centres undefined)
Completion: 22

Prompt: Look up and state reported relative binding affinity (RBA) for CC(C)CN1CCN(c2ccc(C3=CC4(CCc5cc(O)ccc54)c4ccc(O)cc43)cc2)CC1 (centres undefined)
Completion: 42

Prompt: Report relative binding affinity (RBA), nothing else, for this molecule: Cc1cc(C2=CC3(CCc4cc(O)ccc43)c3ccc(O)cc32)ccc1OCCN1CCCCC1 (centres undefined)
Completion: 122

A: Oc1ccc2c(c1)CCC21C=C(c2ccc(N3CCCCC3)cc2)c2cc(O)ccc21 (centres undefined)
B: Oc1ccc2c(c1)CCC21C=C(c2ccc(OCCCN3CCCCC3)cc2)c2cc(O)ccc21 (centres undefined)
Prompt: Lower relative binding affinity (RBA): A or B ? Select an item and report its label.
Completion: A
(A: 125, B: 460)

a: CC(C)N1CCN(c2ccc(C3=CC4(CCc5cc(O)ccc54)c4ccc(O)cc43)cc2)CC1 (centres undefined)
b: Oc1ccc2c(c1)CCC21C=C(c2cccc(OCCN3CCCCC3)c2)c2cc(O)ccc21 (centres undefined)
Prompt: Given a and b , report the one with the higher recorded relative binding affinity (RBA). Reply with the label of the item you choose.
Completion: a
(a: 103, b: 47)
